Cited source for all entries: patent US20240252596A1

Assay: Syringe force measurements of liquid carriers alone after 48 h
Assay type: physicochemical
Conditions: vehicle
assay.metric: Viscosity (cp)*
Report only the number, with the unit cp understood.

Query: Quick check: Viscosity (cp)* of CCCCCCCC/C=C\CCCCCCCC(=O)OCC [ethyl oleate] ?
Response: 6

Query: Quick check: Viscosity (cp)* of CC(=O)OCC(COC(C)=O)OC(C)=O [Triacetin] ?
Response: 23

Query: Quick check: Viscosity (cp)* of OCc1ccccc1 [Benzyl Alcohol (BA), Benzyl Alcohol] ?
Response: 5

###

Assay: Parameters of liquid carriers (density, viscosity, vapor pressure)
Details: liquid carrier
assay.metric: Density
A bare number is not enough; add the unit after it.

Query: Quick check: Density of CN1CCCC1=O ?
Response: 1.03 g/mL

Query: Quick check: Density of CCO ?
Response: 0.79 g/mL

Query: Quick check: Density of O=C(OCc1ccccc1)c1ccccc1 [Benzyl benzoate] ?
Response: 1.11 g/mL

Query: Quick check: Density of OCc1ccccc1 ?
Response: 1.04 g/mL
